- System: LOX IMVI melanoma
- Experimental details: NCI-60 one-dose screen, 48 h
- Assay conditions: 10 µM unless noted
This is part of a sample that, as a whole, favours compounds with a hit. Of some 83,000 tested, about 20% had one in any assay. The source made the active and inactive calls. The calls were made as follows: active = growth percent below 10; inactive = the rest.
Outcomes: active, inactive

{"columns": ["Compound", "Assigned label"],
 "data": [
  ["COc1ccc2c(c1)O/C(=C\\c1cccc(OCC(=O)Nc3nc4c(s3)CCCC4)c1)C2=O", "active"],
  ["Cn1cc(-c2nonc2-c2c[nH]c3ccccc23)c2cccnc21", "inactive"],
  ["Oc1cccc(-c2nc(N3CCOCC3)c3c4c(sc3n2)CCCC4)c1", "inactive"],
  ["C#Cc1cccc(NC(=O)c2ccccc2NC(=O)CCl)c1", "inactive"],
  ["Nc1ccn(-c2ccc(Br)cc2)c(=O)n1", "inactive"],
  ["COc1ccc(C(=O)c2sc3nc(C)cc(C)c3c2N)cc1OC", "inactive"],
  ["Nc1n[nH]c2ccc([C@@H]3Nc4ccc5[nH]ncc5c4[C@H]4C5C=CC(C5)[C@@H]34)cc12 (stereo partly drawn)", "active"],
  ["O=C(CN(C(=O)Cn1c(=O)n2nnnc2c2ccccc21)c1ccccc1C(F)(F)F)Nc1ccc(C(F)(F)F)cc1", "inactive"],
  ["c1ccc(-c2c(-c3ccccc3)[n+](Cc3ccc4ccccc4c3)c(-c3ccc(-c4nc5ccccc5s4)cc3)n2Cc2ccc3ccccc3c2)cc1", "active"],
  ["Brc1ccc(-c2csc(Nc3ccccn3)n2)cc1", "inactive"],
  ["CC(C)(O)c1cn(CCCCN2C(=O)C(=O)c3ccccc32)nn1", "inactive"],
  ["COc1cccc(-c2nc3sccn3c2-c2ccnc(NCCCNS(=O)(=O)c3cccc(F)c3)c2)c1", "inactive"],
  ["CCOc1cc2ncc(C#N)c(Nc3ccc(OCc4cccc(F)c4)c(Cl)c3)c2cc1NC(=O)CCCCC1CCSS1 (stereo not drawn)", "inactive"]
]}

----------
- Test system: KM12 colon
- Experimental details: NCI-60 one-dose screen, 48 h
- Assay conditions: 10 µM unless noted
- Procedure: Growth inhibition of the KM12 human tumor cell line is measured as a screen for anti-cancer activity. Cells are grown in 96 well plates and exposed to the test compound for 48 hours. Compounds are tested at a single concentration, which is 10^-5 M for most compounds. The reported endpoint is percent growth (GI% or GIPRCNT), where numbers from 0 - 100% represent growth inhibition, and numbers from -100% - 0 represent cell death. For example, a value of 40 represents 60% growth inhibition. […]
Compounds without any hit were thinned out: in the full panel of roughly 83,000, 20% have a hit. Active and inactive are the calls of the source. Rule for the calls: active = growth percent below 10; inactive = the rest.
Outcomes: label 1 = active, label 0 = inactive

{"columns": ["Compound", "Assigned label"],
 "data": [
  ["Cc1cc(C)nc(SC2=C(Nc3ccc(C)c(Cl)c3)C(=O)N(Cc3ccccc3)C2=O)n1", "label 0"],
  ["O=C(CN1C(=O)/C(=C/c2ccc(Cl)cc2)SC1=S)NCCCN1CCOCC1", "label 0"],
  ["O=C(/C=C/C=C/c1ccc2c(c1)OCO2)N/N=C\\c1ccc(O)cc1O", "label 0"],
  ["O=C(N/N=C/c1ccccc1O)c1ccccc1Nc1ccnc(C(F)(F)F)c1", "label 0"],
  ["COc1cc(-c2nn(-c3ccc(Br)cc3)cc2C(=O)O)ccc1O", "label 0"],
  ["Cc1cc(N2CCSCC2)nc(NC2CCCC(Nc3ccnc4cc(Cl)ccc34)C2)n1 (stereo not drawn)", "label 1"],
  ["c1ccc(-c2cc3n4c(-c5ccccc5)nn(-c5ccccc5)c4cnc-3n2)cc1", "label 0"],
  ["COc1ccc(C(=O)/C=C/c2cccnc2Nc2cc(OC)c(OC)c(OC)c2)cc1", "label 0"],
  ["COc1ccc2c(c1)O/C(=C\\c1cccc(OCC(=O)Nc3nc4c(s3)CCCC4)c1)C2=O", "label 0"],
  ["c1ccc2[nH]c(-c3ccc(Nc4nc(N5CCCC5)nc5[nH]ncc45)cc3)nc2c1", "label 1"],
  ["CCCSc1ccc2nc(NC(=O)OC)[nH]c2c1", "label 0"],
  ["Cc1nc2c3c(-c4ccccc4)c(-c4ccccc4)oc3ncn2n1", "label 0"],
  ["C=C(C)C(=O)Nc1ccc(NC(C)C)cc1", "label 0"]
]}
